tested on: NCI-H460; test: ATP luminescence proliferation assay, NCI-H460; type: cell-based, human; conditions: Homo sapiens, NCI-H460, 72 h, read-out: EC50 NCI-H460 (72 h), ATP luminescence, NCI-H460, 72 h incubation
pEC50: −log10 of the molar value.
property-name: pEC50

- CC[C@H](C)[C@H](NC(=O)[C@H]1CCCCN1C)C(=O)N(COC(=O)CC(C)C)[C@H](C[C@@H](OC(C)=O)c1nc(C(=O)N[C@@H](Cc2ccc(N)cc2)CC(C)C(=O)O)cs1)C(C)C (some centres unmarked): 8.80
- CC[C@H](C)[C@H](NC(=O)[C@H]1CCCCN1C)C(=O)N(C)[C@H](C[C@@H](OC(C)=O)c1nc(C(=O)N[C@@H](Cc2ccc(N)cc2)CC(C)C(=O)O)cs1)C(C)C (some centres unmarked): 7.80
- CC[C@H](C)[C@H](NC(=O)[C@H]1CCCCN1C)C(=O)N(C)[C@H](C[C@@H](OC)c1nc(C(=O)N[C@H](CCC(=O)OC)Cc2ccccc2)cs1)C(C)C: 7.05
- CC[C@H](C)[C@H](NC(=O)[C@H]1CCCCN1C)C(=O)N(C)[C@H](C[C@@H](OC)c1nc(C(=O)N[C@H](CC(=O)OC)Cc2ccccc2)cs1)C(C)C: 6.75
- CC[C@H](C)[C@H](NC(=O)[C@H]1CCCCN1C)C(=O)N(C)[C@H](C[C@@H](OC)c1nc(C(=O)N[C@@H](Cc2ccccc2)C(=O)N[C@@H](C)C(=O)OC)cs1)C(C)C: 7.64

====

tested on: SW-620; experiment: ATP luminescence proliferation assay, SW-620; format: cell-based, human; details: Homo sapiens, SW-620, 96 h, read-out: EC50 SW-620 (96 h), ATP luminescence, SW-620, 96 h incubation
pEC50: −log10 of the molar value.
property-name: pEC50

* CC[C@H](C)[C@H](NC(=O)[C@H]1CCCCN1C)C(=O)N(C)[C@H](C[C@@H](OC(C)=O)c1nc(C(=O)N[C@@H](Cc2ccc(N)cc2)CC(C)C(=O)O)cs1)C(C)C (stereo partly shown) [Compound 36] | 7.35
* CC[C@H](C)[C@H](NC(=O)[C@H]1CCCCN1C)C(=O)N(C)[C@H](C[C@@H](OC)c1nc(C(=O)N[C@H](CC(=O)OC)Cc2ccccc2)cs1)C(C)C [Compound 25] | 6.71
* CC[C@H](C)[C@H](NC(=O)[C@H]1CCCCN1C)C(=O)N(C)[C@H](C[C@@H](OC)c1nc(C(=O)N[C@@H](Cc2ccccc2)C(=O)N[C@@H](C)C(=O)OC)cs1)C(C)C [Compound 24] | 8.00
* CC[C@H](C)[C@H](NC(=O)[C@H]1CCCCN1C)C(=O)N(C)[C@H](C[C@@H](OC)c1nc(C(=O)N[C@H](CCC(=O)OC)Cc2ccccc2)cs1)C(C)C [Compound 26] | 7.32
* CC[C@H](C)[C@H](NC(=O)[C@H]1CCCCN1C)C(=O)N(C)[C@H](C[C@@H](OC)c1nc(C(=O)NC(Cc2ccccc2)C[C@H](C)C(=O)O)cs1)C(C)C (stereo partly shown) [Compound 15] | 8.43
* CCCC(NC(=O)c1csc([C@@H](C[C@H](C(C)C)N(C)C(=O)[C@@H](NC(=O)[C@H]2CCCCN2C)[C@@H](C)CC)OC)n1)C(=O)OC (stereo partly shown) [Compound 17] | 7.19
* CC[C@H](C)[C@H](NC(=O)[C@H]1CCCCN1C)C(=O)N(COC(=O)CC(C)C)[C@H](C[C@@H](OC(C)=O)c1nc(C(=O)N[C@@H](Cc2ccc(N)cc2)CC(C)C(=O)O)cs1)C(C)C (stereo partly shown) [Compound 54] | 8.96
